# experimentalSystem: HLA-A*03:01
# assayComment: IEDB peptide-MHC binding, purified MHC/competitive/radioactivity; filed as Kd, often an IC50 or EC50 that approximates it; bounds were set here for any values at or beyond the usual limits of such assays
# measurementParameters: source organism: Vaccinia virus WR
Provide the reported pKd of each item.
Recall that pKd is obtained by taking minus log10 of the concentration measured in molar.

# input Find pKd (HLA-A*03:01) for the entry LLDSIKMIY
# output 5.33

# input Find pKd (HLA-A*03:01) for the entry SSAVVDNKLK
# output 6.54

# input Find pKd (HLA-A*03:01) for the entry NISIISIRPR
# output 5.58
